systemTested: KRAS G13C (Homo sapiens (Human), UniProt P01116+P62937, G13C)
Sequence (P01116 other isoform, or with tags, fused parts or gaps G13C, one chain of several): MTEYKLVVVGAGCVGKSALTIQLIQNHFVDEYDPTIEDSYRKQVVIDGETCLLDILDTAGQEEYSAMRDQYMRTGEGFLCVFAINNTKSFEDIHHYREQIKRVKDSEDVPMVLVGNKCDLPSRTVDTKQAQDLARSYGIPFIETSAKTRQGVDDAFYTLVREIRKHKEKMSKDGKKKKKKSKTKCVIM
testProtocol: Ras-Raf disruption/FRET/MOA assay (BRAF RBD, Cyclophilin A)
Type: biochemical
conditionsUsed: read-out: KRAS G13C FRET IC50
pIC50: −log10 of the molar value.
Each entry below carries its recorded pIC50.

Tell me the measured pIC50 of CCn1c(-c2cccnc2[C@H](C)OC)c2c3cc(ccc31)-c1cc(O)cc(c1)C[C@H](NC(=O)C1CCC3C1C3(F)F)C(=O)N1CCC[C@H](N1)C(=O)OCC(C)(C)C2 (stereo partly drawn) [Compound A181] , please.
6.00 to 7.00

Tell me the measured pIC50 of CCn1c(-c2cccnc2[C@H](C)OC)c2c3cc(ccc31)-c1csc(n1)C[C@H](NC(=O)[C@H](C(C)C)N(C)C(=O)N1CC(C(=O)N3CCOCC3)C1)C(=O)N1CCC[C@H](N1)C(=O)OCC(C)(C)C2 [Compound A543] , please.
6.00 to 7.00

Tell me the measured pIC50 of CCn1c(-c2cccnc2[C@H](C)OC)c2c3cc(ccc31)-c1csc(n1)C[C@H](NC(=O)[C@H](C(C)C)N(C)S(=O)(=O)N1CC(OC)C1)C(=O)N1CCC[C@H](N1)C(=O)OCC(C)(C)C2 [Compound A322] , please.
6.00 to 7.00

* * *

systemTested: KRAS WT (Homo sapiens (Human), UniProt P01116+P62937)
Sequence (P01116 other isoform, or with tags, fused parts or gaps): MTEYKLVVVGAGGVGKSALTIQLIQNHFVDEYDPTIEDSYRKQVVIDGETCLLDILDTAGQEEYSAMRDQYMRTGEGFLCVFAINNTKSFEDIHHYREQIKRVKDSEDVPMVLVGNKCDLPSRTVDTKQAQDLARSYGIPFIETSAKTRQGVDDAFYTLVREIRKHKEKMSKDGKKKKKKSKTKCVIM
Sequence (P62937 whole entry): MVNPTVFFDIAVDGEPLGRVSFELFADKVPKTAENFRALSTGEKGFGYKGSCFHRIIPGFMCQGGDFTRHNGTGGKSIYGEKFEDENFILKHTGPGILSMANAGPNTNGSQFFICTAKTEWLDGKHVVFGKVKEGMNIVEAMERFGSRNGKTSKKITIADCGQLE
testProtocol: Ras-Raf disruption/FRET/MOA assay (BRAF RBD, Cyclophilin A)
Format: biochemical
conditionsUsed: read-out: KRAS WT FRET data IC50
Description: Compound is present in plate wells as a 10-point 3-fold dilution series starting at a final concentration of 30 μM. After incubation at 25° C. for 3 hours, a mixture of Anti-His Eu—W1024 and anti-GST allophycocyanin is then added to assay sample wells at final concentrations of 10 nM and 50 nM, respectively, and the reaction incubated for an additional 1.5 hours. […]
Each entry below carries its recorded IC50.

Consider the following illustrative entries.
testSmiles: CCn1c(-c2cnccc2COC)c2c3cc(ccc31)-c1cc(O)cc(c1)C[C@H](NC(=O)[C@H](C(C)C)N(C)C(=O)[C@H]1CCN(C[C@H](C)O)C1)C(=O)N1CCC[C@H](N1)C(=O)OCC(C)(C)C2
IC50: 100 to 1000 nM
//
testSmiles: CCn1c(-c2cccnc2[C@H](C)OC)c2c3cc(ccc31)-c1cc(O)cc(c1)C[C@H](NS(=O)(=O)C1CS(=O)(=O)C1)C(=O)N1CCC[C@H](N1)C(=O)OCC(C)(C)C2
IC50: > 10000 nM
//
testSmiles: CCn1c(-c2cnccc2COC)c2c3cc(ccc31)-c1cc(O)cc(c1)C[C@H](NC(=O)[C@H](C(C)C)N(C)C(=O)[C@@H]1CNC[C@@H]1C(F)(F)F)C(=O)N1CCC[C@H](N1)C(=O)OCC(C)(C)C2
IC50: 100 to 1000 nM
//
testSmiles: CCn1c(-c2cccnc2[C@H](C)OC)c2c3cc(ccc31)-c1cc(O)cc(c1)C[C@H](NC(=O)[C@H](C(C)C)N(C)C(=O)[C@@H]1C[C@@H]1F)C(=O)N1CCC[C@H](N1)C(=O)OCC(C)(C)C2
IC50: 10 to 100 nM

Tell me the measured IC50 of CCn1c(-c2cccnc2[C@H](C)OC)c2c3cc(ccc31)-c1cc(O)cc(c1)C[C@H](NC(=O)[C@H](C(C)C)N(C)C(=O)[C@H]1CCN(C(=O)OC3CN(C)C3)C1)C(=O)N1CCC[C@H](N1)C(=O)OCC(C)(C)C2 , please.
10 to 100 nM

Cited source for all entries: patent US20250195521A1
